EXPERIMENTAL_TARGET: human mGlu2 receptor (Homo sapiens (Human))
Sequence (Q14416 19-872): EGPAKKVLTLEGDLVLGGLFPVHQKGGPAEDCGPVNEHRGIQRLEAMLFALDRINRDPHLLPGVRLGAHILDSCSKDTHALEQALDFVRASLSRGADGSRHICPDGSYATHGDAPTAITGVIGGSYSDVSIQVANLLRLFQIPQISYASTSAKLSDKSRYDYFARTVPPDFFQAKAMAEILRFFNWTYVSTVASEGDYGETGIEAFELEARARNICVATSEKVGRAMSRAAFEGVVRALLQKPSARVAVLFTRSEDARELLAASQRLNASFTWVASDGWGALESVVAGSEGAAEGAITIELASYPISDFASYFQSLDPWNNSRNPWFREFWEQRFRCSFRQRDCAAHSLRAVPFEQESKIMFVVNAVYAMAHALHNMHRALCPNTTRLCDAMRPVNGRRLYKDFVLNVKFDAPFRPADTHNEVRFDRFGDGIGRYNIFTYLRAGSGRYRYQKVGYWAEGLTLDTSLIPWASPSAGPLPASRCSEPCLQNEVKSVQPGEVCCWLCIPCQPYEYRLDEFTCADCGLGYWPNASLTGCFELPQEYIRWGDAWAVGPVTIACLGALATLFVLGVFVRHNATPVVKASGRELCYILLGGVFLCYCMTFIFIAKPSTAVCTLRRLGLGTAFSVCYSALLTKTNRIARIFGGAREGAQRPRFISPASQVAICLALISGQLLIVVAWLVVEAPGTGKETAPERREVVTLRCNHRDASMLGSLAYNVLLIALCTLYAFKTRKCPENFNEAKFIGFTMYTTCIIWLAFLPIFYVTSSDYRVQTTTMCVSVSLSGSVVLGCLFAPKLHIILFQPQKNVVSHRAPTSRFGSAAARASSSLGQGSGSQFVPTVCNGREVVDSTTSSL
ASSAY: Assessment of mGlu2 receptor negative allosteric modulator activity in human mGlu2 receptor stable expressing cells (aequorin luminescence, EC80 glutamate)
Assay type: cell-based
MEASUREMENT_SETUP: human mGlu2 receptor stable expressing HEK cells; compound added 120 seconds before EC80 glutamate; luminescence (RLU); read-out: mGluR2 NAM IC50 (nM) or inhibition rate (%)
Label MET when IC50 is strictly below 10 nM; otherwise label NOT MET.

COMPOUND: C[C@H]1CN(c2ccc(C(F)(F)F)cc2)C(=O)c2c(-c3ccc4nccn4c3)cnn21 [Example 1]
GROUP_LABEL: NOT MET
//
COMPOUND: C[C@H]1CN(c2ccc(F)c(Cl)c2)C(=O)c2c(-c3ccc4nccn4c3)cnn21 [Example 3]
GROUP_LABEL: NOT MET
//
COMPOUND: C[C@H]1CN(c2ccc(C(F)(F)F)cc2)C(=O)c2c(-c3cn4ccnc4cn3)cnn21 [Example 2]
GROUP_LABEL: NOT MET
//
COMPOUND: Cc1cc(N2C[C@H](C)n3ncc(-c4ccc5ncc(F)n5c4)c3C2=O)ccc1F [Example 18]
GROUP_LABEL: MET
//
COMPOUND: Cc1cc(N2C[C@H](C)n3ncc(-c4ccc5nccn5c4)c3C2=O)ccc1F [Example 17]
GROUP_LABEL: NOT MET
//
COMPOUND: C[C@H]1CN(c2ccc(C(F)F)cc2)C(=O)c2c(-c3ccc4nccn4c3)cnn21 [Example 4]
GROUP_LABEL: NOT MET
//
COMPOUND: C[C@H]1CN(c2ccc(C(F)(F)F)cc2)C(=O)c2c(-c3ccc4ncc(F)n4c3)cnn21 [Example 13]
GROUP_LABEL: MET
//
COMPOUND: C[C@H]1CN(c2ccc(OC(F)F)cc2)C(=O)c2c(-c3ccc4nccn4c3)cnn21 [Example 9]
GROUP_LABEL: NOT MET
